// data source = paper PMC5696560

Tested on: M.tb strain H37Rv
Experiment Summary: MICs determined at Tibotec (slightly different protocol)
Format: cell-based
Details: Mycobacterium tuberculosis, MICs determined at Tibotec (Mechelen, Belgium), read-out: MIC90 (MABA, footnote d)
Observable: log10 of MIC90 (log10 of the value in µg/mL)

| Molecule | Endpoint Value |
| --- | --- |
| COc1nc2ccc(Br)cc2cc1C(c1ccc(C)s1)C(O)(CCN(C)C)c1cccc(F)c1 (stereo not drawn) [Compound 11] | -0.33 |
| COc1nc2ccc(Br)cc2cc1C(c1ccco1)C(O)(CCN(C)C)c1cccc(C#N)c1 (stereo not drawn) [Compound 21] | 0.29 |
| COc1nc2ccc(Br)cc2cc1C(c1ccoc1)C(O)(CCN(C)C)c1cccc(OC(F)(F)F)c1 (stereo not drawn) [Compound 25] | -0.12 |
| COc1cccc(C(O)(CCN(C)C)C(c2ccco2)c2cc3cc(Br)ccc3nc2OC)c1OC (stereo not drawn) [Compound 18] | -0.15 |
| COc1ccc(C(c2cc3cc(C#N)ccc3nc2OC)C(O)(CCN(C)C)c2cccc(F)c2)s1 (stereo not drawn) [Compound 14] | -0.15 |
| COc1nc2ccc(Br)cc2cc1C(c1ccoc1)C(O)(CCN(C)C)c1cccc(F)c1 (stereo not drawn) [Compound 22] | -0.13 |
| COc1nc2ccc(Br)cc2cc1C(c1ccco1)C(O)(CCN(C)C)c1cccc(OC(F)(F)F)c1 (stereo not drawn) [Compound 17] | -0.12 |
| COc1ncccc1C(c1cc2cc(Br)ccc2nc1OC)C(O)(CCN(C)C)c1cccc(F)c1 (stereo not drawn) [Compound 29] | -0.92 |
| COc1nc2ccc(Br)cc2cc1C(c1ccoc1)C(O)(CCN(C)C)c1ccccn1 (stereo not drawn) [Compound 28] | 0.26 |
| COc1nc2ccc(C#N)cc2cc1C(c1ccoc1)C(O)(CCN(C)C)c1cccc(F)c1 (stereo not drawn) [Compound 23] | 0.03 |
| COc1nc2ccc(Br)cc2cc1C(c1ccco1)C(O)(CCN(C)C)c1cccc2c1OCO2 (stereo not drawn) [Compound 19] | -0.16 |
| COc1nc2ccc(Br)cc2cc1C(c1ccoc1)C(O)(CCN(C)C)c1cccc(F)n1 (stereo not drawn) [Compound 24] | -0.17 |
| COc1nc2ccc(Br)cc2cc1C(c1ccoc1)C(O)(CCN(C)C)c1cccc2c1OCO2 (stereo not drawn) [Compound 27] | -0.05 |
| COc1nc2ccc(C#N)cc2cc1C(c1ccco1)C(O)(CCN(C)C)c1cccc(F)c1 (stereo not drawn) [Compound 16] | 0.25 |
| COc1cccc([C@](O)(CCN(C)C)[C@@H](c2cc3cc(Br)ccc3nc2OC)c2ccnc(OC)c2OC)c1OC [Compound 50] | -0.68 |
| COc1cccc(C(O)(CCN(C)C)C(c2ccoc2)c2cc3cc(Br)ccc3nc2OC)c1OC (stereo not drawn) [Compound 26] | 0.06 |
| COc1nc2ccc(Br)cc2cc1C(c1ccco1)C(O)(CCN(C)C)c1cccc(F)c1 (stereo not drawn) [Compound 15] | -0.13 |
| COc1nc2ccc(Br)cc2cc1C(c1ccco1)C(O)(CCN(C)C)c1ccccn1 (stereo not drawn) [Compound 20] | 0.29 |
